src = BindingDB's records for doi:10.7270/Q23B5XSC

Measurement record for C-C chemokine receptor type 5 (Homo sapiens); quantity recorded: EC50.
All answers are understood in nM, so give the number only.

>  <smiles>
CCOC(=O)c1ccc(NC(=O)COc2ccc(S(=O)(=O)N3CCCC3)cc2)cc1

>  <study.system>
C-C chemokine receptor type 5 (Homo sapiens)
Sequence (P51681 whole entry): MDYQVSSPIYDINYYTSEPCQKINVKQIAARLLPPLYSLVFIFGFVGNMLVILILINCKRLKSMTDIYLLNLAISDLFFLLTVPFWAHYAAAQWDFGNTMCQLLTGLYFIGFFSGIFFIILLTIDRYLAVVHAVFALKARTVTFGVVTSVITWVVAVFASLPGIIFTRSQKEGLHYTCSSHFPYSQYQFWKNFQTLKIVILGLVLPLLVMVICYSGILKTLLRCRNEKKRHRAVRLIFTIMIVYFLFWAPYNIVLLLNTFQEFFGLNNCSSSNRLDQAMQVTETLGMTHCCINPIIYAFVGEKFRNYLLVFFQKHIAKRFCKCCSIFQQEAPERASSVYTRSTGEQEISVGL

>  <result.unit>
nM

>  <recorded.result>
188

$$$$
>  <smiles>
CCOC(=O)c1ccc(NC(=O)Cn2nnc(-c3ccccc3)n2)cc1

>  <study.system>
C-C chemokine receptor type 5 (Homo sapiens)

>  <result.unit>
nM

>  <recorded.result>
123

$$$$
>  <smiles>
CC(=O)Nc1ccc(S(=O)(=O)NCCc2csc(-c3cccnc3)n2)cc1

>  <study.system>
C-C chemokine receptor type 5 (Homo sapiens)

>  <result.unit>
nM

>  <recorded.result>
19.6

$$$$

So what's the measured EC50 for this one? `CN(CC(=O)N1CCN(c2ccccn2)CC1)S(=O)(=O)c1ccc(Cl)cc1`
7.46
